# Experimental system: MC1-R (B-16 mouse melanoma cells) (Mus musculus, UniProt Q01727)
# Construct: B-16 mouse melanoma cells (containing MC1-R); endogenous in cells; host or cells: B-16 mouse melanoma cells
# Sequence (Q01727 whole entry): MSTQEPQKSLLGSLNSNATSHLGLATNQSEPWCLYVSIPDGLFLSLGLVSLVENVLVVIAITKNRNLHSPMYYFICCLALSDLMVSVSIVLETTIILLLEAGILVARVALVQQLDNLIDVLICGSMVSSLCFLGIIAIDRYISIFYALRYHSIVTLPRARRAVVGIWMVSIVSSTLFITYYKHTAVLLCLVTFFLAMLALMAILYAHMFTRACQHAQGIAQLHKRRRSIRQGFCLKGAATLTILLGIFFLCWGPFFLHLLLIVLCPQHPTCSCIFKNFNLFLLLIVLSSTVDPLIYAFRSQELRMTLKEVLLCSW
# Protocol notes: Competitive inhibition binding assay, 125I-NDP-α-MSH, MC1-R
# Condition label: 1 μM compound; inhibition of 125I-NDP-α-MSH binding; mean of triplicates; results less than 0% reported as 0%
Readout label: Inhibition at 1 μM MC1-R (%)

N=C(N)NCCC[C@H]1C(=O)N(CCc2c[nH]c3ccccc23)CCN1C(=O)[C@@H](Cc1ccc(Cl)cc1)NC(=O)[C@@H](N)COCc1ccccc1 [Example 16] ... 86
NCCCC[C@H]1C(=O)N(CCc2ccc3ccccc3c2)CCN1C(=O)[C@@H](Cc1ccc(Cl)cc1Cl)NCc1ccc(-c2ccccc2)cc1 [Example 39] ... 0
N=C(N)NCCC[C@H]1C(=O)N(CCc2c[nH]c3ccccc23)CCN1C(=O)[C@@H](Cc1ccccc1Cl)NC(=O)[C@@H](N)COCc1ccccc1 [Example 20] ... 87
N[C@H](Cc1ccc(Cl)cc1Cl)C(=O)N1CCN(CCc2ccc3ccccc3c2)C(=O)[C@@H]1CCCCNC=O [Example 64] ... 8
NCCCNC(=O)[C@@H]1C[C@@H](OCc2ccccc2)CN1C(=O)[C@@H](Cc1ccccc1)NC(=O)c1ccc(CN)cc1 [Example 169] ... 12
N[C@H](Cc1ccc(Cl)cc1Cl)C(=O)N1CCN(CCc2ccc3ccccc3c2)C(=O)[C@@H]1CCCNc1ncccn1 [Example 68] ... 3

----------
# Experimental system: MC3-R (Homo sapiens)
# Sequence (P41968 whole entry): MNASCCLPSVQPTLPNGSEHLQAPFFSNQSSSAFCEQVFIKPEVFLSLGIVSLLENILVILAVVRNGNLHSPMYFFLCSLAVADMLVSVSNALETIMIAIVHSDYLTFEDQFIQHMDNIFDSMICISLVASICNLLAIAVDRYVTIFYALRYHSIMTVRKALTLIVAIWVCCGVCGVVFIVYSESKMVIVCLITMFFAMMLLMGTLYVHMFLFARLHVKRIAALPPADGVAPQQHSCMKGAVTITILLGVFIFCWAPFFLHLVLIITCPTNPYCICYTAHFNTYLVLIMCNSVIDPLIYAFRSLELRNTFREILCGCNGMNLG
# Protocol notes: Competitive inhibition binding assay, 125I-NDP-α-MSH, MC3-R
# Design: expressed in transfected cells
Could you label it Y if measured inhibition at 1 µM is 60% or higher, and N otherwise?

N=C(N)NCCCC1C(=O)N(CCc2c[nH]c3ccccc23)CCN1C(=O)C(Cc1ccc(Cl)cc1)NC(=O)C1Cc2ccccc2CN1 (centres unmarked) [Example 14] ... Y
N=C(N)NCCC[C@H]1C(=O)N2C(CC[C@@H]2COc2ccc3ccccc3c2)N1C(=O)[C@@H](Cc1ccc(Cl)cc1Cl)NC(=O)[C@@H]1CC[C@H](c2ccccc2)N1 (some centres unmarked) [Example 115] ... N
N=C(N)NCCC[C@H]1C(=O)N(CCc2ccc3ccccc3c2)CCN1C(=O)COc1ccc(Cl)cc1Cl [Example 77] ... N
[2H]N[C@@H](Cc1cnc[nH]1)C(=O)N[C@@H](Cc1ccccc1)C(=O)N1CC2C[C@H](Oc3ccc4ccccc4c3)CN2C(=O)[C@@H]1CCCCN (some centres unmarked) [Example 179] ... N
[2H]N[C@@H](Cc1cnc[nH]1)C(=O)N[C@@H](Cc1ccccc1)C(=O)N1C2CC[C@H](COc3ccc4ccccc4c3)N2C(=O)[C@@H]1CCCCN (some centres unmarked) [Example 111] ... N
[2H]N[C@@H](Cc1ccccc1)C(=O)N1C[C@H](OCc2ccccc2)C[C@H]1C(=O)NCCCN [Example 137] ... N
N=C(N)NCCCC1C(=O)N(CCc2c[nH]c3ccccc23)CCN1C(=O)C(Cc1ccc(Cl)cc1)NC(=O)C(COCc1ccccc1)NC(=O)CCCCCCN (centres unmarked) [Example 17] ... Y

----------
# Experimental system: MC4-R (Homo sapiens)
# Sequence (P32245 whole entry): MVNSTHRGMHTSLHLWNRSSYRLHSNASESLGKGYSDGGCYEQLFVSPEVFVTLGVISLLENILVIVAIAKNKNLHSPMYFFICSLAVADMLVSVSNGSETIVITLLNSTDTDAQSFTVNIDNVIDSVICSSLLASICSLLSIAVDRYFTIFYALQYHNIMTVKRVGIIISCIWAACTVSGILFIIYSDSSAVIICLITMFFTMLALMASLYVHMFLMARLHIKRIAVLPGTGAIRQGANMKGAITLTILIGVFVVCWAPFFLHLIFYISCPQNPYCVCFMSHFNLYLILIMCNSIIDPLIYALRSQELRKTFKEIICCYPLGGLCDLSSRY
# Protocol notes: Competitive inhibition binding assay, 125I-NDP-α-MSH, MC4-R
# Set-up: expressed in transfected cells
Recorded measurements of inhibition at 1 µM, one per entry
Readout label: inhibition at 1 µM (%)

N=C(N)NCCC[C@H]1C(=O)N(CCc2ccc3ccccc3c2)CCN1C(=O)COc1ccc(Cl)cc1Cl ... 24
[2H]N[C@@H](Cc1ccccc1)C(=O)N1C[C@H](OCc2ccccc2)C[C@H]1C(=O)NCCCN ... 0
N=C(N)NCCCC1C(=O)N(CCc2c[nH]c3ccccc23)CCN1C(=O)C(Cc1ccc(Cl)cc1)NC(=O)C1Cc2ccccc2CN1 (centres unmarked) ... 99
NC(COCc1ccccc1)C(=O)NC(Cc1ccc(Cl)cc1Cl)C(=O)N1CCN(CCc2ccc3ccccc3c2)C(=O)C1CCCNC1=NCCN1 (centres unmarked) ... 99
[2H]N[C@@H](Cc1cnc[nH]1)C(=O)N[C@@H](Cc1ccccc1)C(=O)N1CC2C[C@H](Oc3ccc4ccccc4c3)CN2C(=O)[C@@H]1CCCCN (some centres unmarked) ... 0

----------
# Experimental system: MC5-R (Homo sapiens)
# Sequence (P33032 whole entry): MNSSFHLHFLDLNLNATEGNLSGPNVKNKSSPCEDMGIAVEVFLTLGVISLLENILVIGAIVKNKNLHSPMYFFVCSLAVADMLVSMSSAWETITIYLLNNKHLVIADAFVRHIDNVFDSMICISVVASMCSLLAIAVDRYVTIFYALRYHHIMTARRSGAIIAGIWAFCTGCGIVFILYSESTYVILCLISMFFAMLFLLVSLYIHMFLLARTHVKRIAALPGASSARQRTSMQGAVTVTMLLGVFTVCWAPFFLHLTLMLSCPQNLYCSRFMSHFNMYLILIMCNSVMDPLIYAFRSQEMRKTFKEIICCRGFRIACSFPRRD
# Protocol notes: Competitive inhibition binding assay, 125I-NDP-α-MSH, MC5-R
# Parameters: expressed in transfected cells
# Condition label: 1 μM compound; inhibition of 125I-NDP-α-MSH binding; mean of triplicates; results less than 0% reported as 0%
Readout label: Inhibition at 1 μM MC5-R (%)

CCCCCCC(=O)N[C@@H](COCc1ccccc1)C(=O)N[C@H](Cc1ccccc1Cl)C(=O)N1C2CC[C@H](COc3ccc4ccccc4c3)N2C(=O)[C@@H]1CCCCN (stereo partly drawn) [Example 86] ... 47
N=C(N)NCCC[C@H]1C(=O)N2C(CC[C@@H]2COc2ccc3ccccc3c2)N1C(=O)[C@@H](Cc1ccc(Cl)cc1Cl)NC(=O)[C@@H]1Cc2ccccc2CN1 (stereo partly drawn) [Example 112] ... 96
N[C@H](Cc1ccc(Cl)cc1Cl)C(=O)N1CCN(CCc2ccc3ccccc3c2)C(=O)[C@@H]1CCNC1=NCCN1 [Example 55] ... 27
NCCCC[C@H]1C(=O)N(CCc2ccc3ccccc3c2)CCN1C(=O)[C@@H](Cc1ccc(Cl)cc1Cl)NC(=O)C/C=C/c1ccccc1 [Example 33] ... 61
N=C(N)NCCC[C@H]1C(=O)N2C(CC[C@@H]2COc2ccc3ccccc3c2)N1C(=O)[C@@H](Cc1ccccc1Cl)NC(=O)[C@@H]1C[C@@H](OCc2ccccc2)CN1 (stereo partly drawn) [Example 100] ... 93
N[C@@H](COCc1ccccc1)C(=O)N[C@H](Cc1ccc(Cl)cc1Cl)C(=O)N1CCN(CCc2ccc3ccccc3c2)C(=O)[C@@H]1CCCNS(N)(=O)=O [Example 46] ... 25

----------
# Experimental system: MC5-R (Homo sapiens)
# Protocol notes: Competitive inhibition binding assay, 125I-NDP-α-MSH, MC5-R
# Set-up: expressed in transfected cells
# Condition label: 1 μM compound; inhibition of 125I-NDP-α-MSH binding; mean of triplicates; results less than 0% reported as 0%
Non-standard residues stand in square brackets, D forms with d. Residues, ends and D or L forms follow the SMILES beside them. *: point of attachment. Hyp = O=C(O)[C@@H]1C[C@@H](O)CN1; NH(CH2)3NH2 = NCCCN*; Bn = c1ccc(C*)cc1
Recorded measurements of Inhibition at 1 μM MC5-R, one per entry
Readout label: Inhibition at 1 μM MC5-R (%)

C[C@H](N)C(=O)N[C@@H](Cc1cnc[nH]1)C(=O)N[C@H](Cc1ccccc1)C(=O)N1C[C@H](OCc2ccccc2)C[C@H]1C(=O)NCCCN [Example 135] (H-AH[dF][Hyp](Bn)-{NH(CH2)3NH2}) ... 0
N=C(N)NCCC[C@H]1C(=O)N(CCc2c[nH]c3ccccc23)CCN1C(=O)[C@@H](Cc1ccccc1Cl)NC(=O)[C@@H]1C[C@@H](OCc2ccccc2)CN1 [Example 19] ... 85
NCCCC[C@H]1C(=O)N2C(CC[C@@H]2COc2ccc3ccccc3c2)N1C(=O)[C@@H](Cc1ccccc1Cl)NC(=O)[C@@H]1C[C@@H](OCc2ccccc2)CN1 (some centres unmarked) [Example 84] ... 37
NCCCC[C@H]1C(=O)N2C(CC[C@@H]2COc2ccc3ccccc3c2)N1C(=O)[C@@H](Cc1ccccc1Cl)NC(=O)[C@@H]1C[C@H](Oc2ccccc2)CN1 (some centres unmarked) [Example 92] ... 21
NCCCNC(=O)C1CC(OCc2ccccc2)CN1C(=O)C(Cc1ccccc1)NC(=O)C1NCCc2ccccc21 (centres unmarked) [Example 160] ... 0

----------
# Experimental system: UniProt P41968
# Protocol notes: Competitive inhibition binding assay, 125I-NDP-α-MSH, MC3-R
# Parameters: expressed in transfected cells
# Condition label: 1 μM compound; inhibition of 125I-NDP-α-MSH binding; mean of triplicates; results less than 0% reported as 0%
Readout label: Inhibition at 1 μM MC3-R (%)

N[C@H](Cc1ccc(Cl)cc1Cl)C(=O)N1CCN(CCc2ccc3ccccc3c2)C(=O)[C@@H]1CCCNc1nncs1 [Example 70] ... 31
NCCCC[C@H]1C(=O)N2C(CC[C@@H]2COc2ccc3ccccc3c2)N1C(=O)[C@@H](Cc1ccccc1Cl)NC(=O)[C@H]1Cc2ccccc2CN1 (stereo partly drawn) [Example 93] ... 12
NCC[C@H]1C(=O)N(CCc2ccc3ccccc3c2)CCN1C(=O)[C@H](N)Cc1ccc(Cl)cc1Cl [Example 54] ... 11
N=C(N)NCCC[C@H]1C(=O)N(CCc2c[nH]c3ccccc23)CCN1C(=O)[C@@H](Cc1ccccc1Cl)NC(=O)[C@@H]1C[C@@H](OCc2ccccc2)CN1 [Example 19] ... 59
N[C@H](Cc1ccc(Cl)cc1Cl)C(=O)N1CCN(CCc2ccc3ccccc3c2)C(=O)[C@@H]1CCCCNC(=O)c1cccnc1 [Example 60] ... 6
NCCCC[C@H]1C(=O)N2C(CC[C@@H]2COc2ccc3ccccc3c2)N1C(=O)[C@@H](Cc1ccccc1Cl)NC(=O)[C@@H](N)COCc1ccccc1 (stereo partly drawn) [Example 82] ... 0
